- System: NCI-H226 lung
- PROTOCOL_DESCRIPTION: NCI tumour cell line growth inhibition, 48 h
READOUT_LABEL: TGI

// known answers, use as guide
{"MOLECULE": "CC(C)(C)c1cc(/C=C(\\C#N)C(=O)NCCO)cc(C(C)(C)C)c1O", "READOUT_LABEL": "TGI", "VAL": "40.7 µM"}
{"MOLECULE": "Cc1nn(-c2cc(Cl)ccc2[N+](=O)[O-])c(C)c1Cl", "READOUT_LABEL": "TGI", "VAL": "> 100 µM"}
{"MOLECULE": "COc1ccc(-c2cc(=O)c3c(OC)c(OC)c(OC)cc3o2)cc1", "READOUT_LABEL": "TGI", "VAL": "> 100 µM"}
{"MOLECULE": "Nc1c(C(=O)c2ccc(Cl)cc2)[nH]c(NCc2ccccc2)c1C(=S)Nc1ccccc1", "READOUT_LABEL": "TGI", "VAL": "27.2 µM"}
{"MOLECULE": "O=C(Nc1ccccc1C(=O)NCCCO)/C(=C/c1ccccc1O)NC(=O)c1ccccc1", "READOUT_LABEL": "TGI", "VAL": "> 100 µM"}

Q: Entry `CCCCN=C(NC#N)NCCCC` , system NCI-H226 lung: what TGI was measured?
Ans: > 100 µM

Q: And for `N#Cc1c(-c2ccc(F)cc2)nc(N/N=C/c2c[nH]c3ccccc23)nc1N1CCOCC1` ?
Ans: 88 µM

Q: And for `COc1ccc2c(c1)CC1=C(O2)c2ccc(OC)cc2OC1` ?
Ans: > 100 µM

###

- System: HOP-62 NSCLC
- PROTOCOL_DESCRIPTION: NCI tumour cell line growth inhibition, 48 h
READOUT_LABEL: GI50

Q: Entry `Oc1c(CN2CCC(N3CCCCC3)CC2)cc(Cc2cc(CN3CCC(N4CCCCC4)CC3)c(O)c3ncccc23)c2cccnc12` , system HOP-62 NSCLC: what GI50 was measured?
Ans: 0.425 µM

Q: And for `CC/C(=C(/c1ccc(O)cc1)c1ccc(OCCNC)cc1)c1ccccc1` ?
Ans: 2.03 µM

Q: And for `C=C1C(=O)O[C@H]2[C@H]1CC/C(Cn1cc(-c3ccc(OC)cc3)nn1)=C\CC[C@@]1(C)O[C@@H]21` ?
Ans: 10.5 µM

###

- System: SF-295 CNS
- PROTOCOL_DESCRIPTION: NCI tumour cell line growth inhibition, 48 h
Catalogue of TGI readings, one per entry.

{"COMPOUND": "Cc1cccc(C)c1NC(=O)C(=O)C1C(=O)NC(=O)NC1=O", "TGI": "> 100 µM"}

Q: Query (compound): `O=C(Cc1ccc([N+](=O)[O-])cc1)OCC#CCOC(=O)Cc1ccc([N+](=O)[O-])cc1` ; field requested: TGI
Ans: > 10 µM

Q: And for `Cn1c2ccccc2c2c(-c3ccccc3)[n+]3ccncc3nc21` ?
Ans: > 100 µM

Q: And for CSC(C1c2ccccc2N(c2ccc(C)cc2)C2=NC(=O)N(C)C(=O)C21Cl)S(=O)(=O)c1ccc(C)cc1 (centres undefined) ?
Ans: 62.4 µM

###

- Tested on: SK-OV-3 ovarian
- PROTOCOL_DESCRIPTION: NCI tumour cell line growth inhibition, 48 h
Catalogue of TGI readings, one per entry.
The reply should contain only the number, in µM.

// known answers, use as guide
{"SMILES": "CC/C(=C(/c1ccc(O)cc1)c1ccc(OCCNC)cc1)c1ccccc1", "SYSTEM": "SK-OV-3 ovarian", "READOUT_LABEL": "TGI", "UNIT_OF_MEASUREMENT": "µM", "VAL": 12}
{"SMILES": "Brc1ccc2c(-c3csc(-c4c[nH]c5cc(Br)ccc45)n3)c[nH]c2c1", "SYSTEM": "SK-OV-3 ovarian", "READOUT_LABEL": "TGI", "UNIT_OF_MEASUREMENT": "µM", "VAL": 97.4}
{"SMILES": "C=CCCCCCCCCC(=O)[O][Sn]([CH2]CCC)([CH2]CCC)[CH2]CCC", "SYSTEM": "SK-OV-3 ovarian", "READOUT_LABEL": "TGI", "UNIT_OF_MEASUREMENT": "µM", "VAL": 0.306}

Proceed to the following item.
Q: Query (molecule): `Cc1cc2[nH]c3c(C#N)c4c(c(=O)n3c2cc1C)CCCC4` ; field requested: TGI
Ans: 27.1
